assayTarget: NR1/NR2A (Homo sapiens, UniProt Q05586+Q12879)
Construct: host or cells: HEK293 (tetracycline-inducible NR2A expression)
Sequence (Q12879 23-1464, other chains not shown): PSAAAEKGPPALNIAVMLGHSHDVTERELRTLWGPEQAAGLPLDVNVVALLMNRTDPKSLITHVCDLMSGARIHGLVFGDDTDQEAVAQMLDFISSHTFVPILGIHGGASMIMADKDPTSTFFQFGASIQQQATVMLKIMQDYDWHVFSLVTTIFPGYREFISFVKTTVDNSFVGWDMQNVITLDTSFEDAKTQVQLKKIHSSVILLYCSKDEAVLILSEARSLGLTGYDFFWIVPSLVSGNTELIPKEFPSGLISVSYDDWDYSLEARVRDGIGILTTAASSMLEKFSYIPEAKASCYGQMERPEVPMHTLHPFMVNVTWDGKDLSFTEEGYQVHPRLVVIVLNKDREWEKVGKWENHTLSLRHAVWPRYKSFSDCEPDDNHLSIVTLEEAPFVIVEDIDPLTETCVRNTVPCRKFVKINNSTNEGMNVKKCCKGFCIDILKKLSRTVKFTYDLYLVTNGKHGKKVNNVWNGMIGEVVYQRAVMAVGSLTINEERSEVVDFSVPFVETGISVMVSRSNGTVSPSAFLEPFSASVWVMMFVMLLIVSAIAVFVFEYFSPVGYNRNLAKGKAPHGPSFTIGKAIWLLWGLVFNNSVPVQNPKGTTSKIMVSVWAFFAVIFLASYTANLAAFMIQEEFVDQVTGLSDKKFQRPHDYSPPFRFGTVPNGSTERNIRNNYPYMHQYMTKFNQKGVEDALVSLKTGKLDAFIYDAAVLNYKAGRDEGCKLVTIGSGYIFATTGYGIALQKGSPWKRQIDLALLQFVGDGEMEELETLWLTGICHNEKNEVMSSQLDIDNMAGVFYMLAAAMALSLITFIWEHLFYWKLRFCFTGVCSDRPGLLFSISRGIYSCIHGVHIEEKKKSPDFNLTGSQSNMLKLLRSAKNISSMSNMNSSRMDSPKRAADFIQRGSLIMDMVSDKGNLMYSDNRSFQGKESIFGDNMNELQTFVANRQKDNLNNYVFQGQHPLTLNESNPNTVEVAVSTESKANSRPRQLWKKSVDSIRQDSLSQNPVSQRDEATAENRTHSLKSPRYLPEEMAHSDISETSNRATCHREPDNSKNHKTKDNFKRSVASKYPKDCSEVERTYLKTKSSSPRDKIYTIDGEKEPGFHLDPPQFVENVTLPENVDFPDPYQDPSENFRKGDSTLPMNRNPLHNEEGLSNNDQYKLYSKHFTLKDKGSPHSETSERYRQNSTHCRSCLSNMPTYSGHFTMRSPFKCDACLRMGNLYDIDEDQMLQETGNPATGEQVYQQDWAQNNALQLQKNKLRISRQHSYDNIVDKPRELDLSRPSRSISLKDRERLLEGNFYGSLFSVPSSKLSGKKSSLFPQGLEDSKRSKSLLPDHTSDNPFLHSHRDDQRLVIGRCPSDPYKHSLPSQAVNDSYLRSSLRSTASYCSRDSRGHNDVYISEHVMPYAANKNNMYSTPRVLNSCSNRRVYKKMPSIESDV
assayName: FDSS Ca2+ influx inhibition assay in HEK293 cells expressing NR1/NR2A
Format: cell-based
studyConditions: binned NR2A inhibition concentration, read-out: Binned Activity
Kindly supply the reported IC50 values for the records listed here.

Return IC50 (reported value) for this compound: `Cc1csc(CNC(=O)c2cnc(CNS(=O)(=O)c3ccc(F)c(Cl)c3)cn2)n1`
> 10 µM

Return IC50 (reported value) for this compound: `Cc1ncc(CNC(=O)c2ccc(CNS(=O)(=O)c3c(C)noc3C)cn2)s1`
> 10 µM

Return IC50 (reported value) for this compound: `C[C@@H](NC(=O)c1ccc(CNS(=O)(=O)c2ccc(F)c(Cl)c2)nc1)c1cncs1`
> 10 µM
